# measurementTarget: EP2 (Homo sapiens)
# Sequence (P43116 whole entry): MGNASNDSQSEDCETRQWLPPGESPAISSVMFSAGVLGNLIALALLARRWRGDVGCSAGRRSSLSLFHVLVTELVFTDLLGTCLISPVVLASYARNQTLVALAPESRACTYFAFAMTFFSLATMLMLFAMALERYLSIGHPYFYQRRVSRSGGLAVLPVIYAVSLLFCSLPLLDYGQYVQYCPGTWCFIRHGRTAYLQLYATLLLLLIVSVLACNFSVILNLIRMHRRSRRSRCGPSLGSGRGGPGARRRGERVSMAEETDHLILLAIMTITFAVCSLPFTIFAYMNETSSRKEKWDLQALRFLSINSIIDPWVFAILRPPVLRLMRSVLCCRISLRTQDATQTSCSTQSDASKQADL
# test: EP2 cAMP functional assay
testReadout: pEC50
Lab note — pEC50 values are minus log10 of concentrations in M.

// field: pEC50; key: CCCCCC(O)c1ccc(N2C(=O)C(C)C[C@@H]2COCc2ccc(C(=O)O)s2)cc1 (single isomer, unassigned) [Example 1] ; value = 6.63
